Experiment: activity coefficient (dimensionless); of the first substance listed, at infinite dilution; xn = mol fraction of the nth substance listed
Conditions: 318.15 K; 101.33 kPa; Liquid; Chromatography; x1 = 0
Assign activity coefficient to each entry below.
// keep it numeric: no unit symbol after the value

// query Which activity coefficient value is on record for C=CCCCC [hex-1-ene] + CCCCCCCCCCCC[N+](C)(C)CCOc1ccccc1.O=S(=O)([N-]S(=O)(=O)C(F)(F)F)C(F)(F)F ?
// result 2.19

// query I am curious: what activity coefficient value has been reported for CC1CCCCC1 [methylcyclohexane] + CCCCCCCCCCCC[N+](C)(C)CCOc1ccccc1.O=S(=O)([N-]S(=O)(=O)C(F)(F)F)C(F)(F)F ?
// result 2.35

// query Suppose we examine the molecule CCCCCO [pentan-1-ol] + CCCCCCCCCCCC[N+](C)(C)CCOc1ccccc1.O=S(=O)([N-]S(=O)(=O)C(F)(F)F)C(F)(F)F ; what activity coefficient value has been reported?
// result 1.34

// query Which activity coefficient is reported for this molecule? CCCOCCC [dipropyl ether] + CCCCCCCCCCCC[N+](C)(C)CCOc1ccccc1.O=S(=O)([N-]S(=O)(=O)C(F)(F)F)C(F)(F)F
// result 1.78

// query Given the molecule CCCCCCCCCC [decane] + CCCCCCCCCCCC[N+](C)(C)CCOc1ccccc1.O=S(=O)([N-]S(=O)(=O)C(F)(F)F)C(F)(F)F , what is its reported activity coefficient?
// result 5.72

// query Give its activity coefficient value. Item: C=CCCCCCC [oct-1-ene] + CCCCCCCCCCCC[N+](C)(C)CCOc1ccccc1.O=S(=O)([N-]S(=O)(=O)C(F)(F)F)C(F)(F)F
// result 2.97

// query Entry under review: COC(C)=O [methyl ethanoate] + CCCCCCCCCCCC[N+](C)(C)CCOc1ccccc1.O=S(=O)([N-]S(=O)(=O)C(F)(F)F)C(F)(F)F . Reported activity coefficient?
// result 0.474

// query Record request: activity coefficient value, item CCOC(C)=O [ethyl acetate] + CCCCCCCCCCCC[N+](C)(C)CCOc1ccccc1.O=S(=O)([N-]S(=O)(=O)C(F)(F)F)C(F)(F)F
// result 0.505

// query Would you kindly share the measured activity coefficient for CCCC=O [butanal] + CCCCCCCCCCCC[N+](C)(C)CCOc1ccccc1.O=S(=O)([N-]S(=O)(=O)C(F)(F)F)C(F)(F)F ?
// result 0.711

// query What value of activity coefficient has been recorded for this entry: Cc1ccccc1 [toluene] + CCCCCCCCCCCC[N+](C)(C)CCOc1ccccc1.O=S(=O)([N-]S(=O)(=O)C(F)(F)F)C(F)(F)F
// result 0.681

// query I have this molecule here, CCC(=O)OC [methyl propanoate] + CCCCCCCCCCCC[N+](C)(C)CCOc1ccccc1.O=S(=O)([N-]S(=O)(=O)C(F)(F)F)C(F)(F)F , and I need its recorded activity coefficient.
// result 0.498

// query I'd like to know its activity coefficient. The molecule in question is C1=CCCCC1 [cyclohexene] + CCCCCCCCCCCC[N+](C)(C)CCOc1ccccc1.O=S(=O)([N-]S(=O)(=O)C(F)(F)F)C(F)(F)F
// result 1.47

// query Which activity coefficient is listed for CC(C)c1ccccc1 [isopropylbenzene] + CCCCCCCCCCCC[N+](C)(C)CCOc1ccccc1.O=S(=O)([N-]S(=O)(=O)C(F)(F)F)C(F)(F)F ?
// result 1.14

// query Recorded activity coefficient for C#CCCCC [1-hexyne] + CCCCCCCCCCCC[N+](C)(C)CCOc1ccccc1.O=S(=O)([N-]S(=O)(=O)C(F)(F)F)C(F)(F)F , please?
// result 1.26

// query What value of activity coefficient has been reported for the following molecule? CCOCC [diethyl ether] + CCCCCCCCCCCC[N+](C)(C)CCOc1ccccc1.O=S(=O)([N-]S(=O)(=O)C(F)(F)F)C(F)(F)F
// result 1.06

// query # get_value(readout='activity coefficient', item= CCC(=O)CC [pentan-3-one] + CCCCCCCCCCCC[N+](C)(C)CCOc1ccccc1.O=S(=O)([N-]S(=O)(=O)C(F)(F)F)C(F)(F)F )
// result 0.387

// query activity coefficient lookup needed for C1CCOC1 [tetrahydrofuran] + CCCCCCCCCCCC[N+](C)(C)CCOc1ccccc1.O=S(=O)([N-]S(=O)(=O)C(F)(F)F)C(F)(F)F , thanks.
// result 0.364

// query Param item = CCCCCCCC [octane] + CCCCCCCCCCCC[N+](C)(C)CCOc1ccccc1.O=S(=O)([N-]S(=O)(=O)C(F)(F)F)C(F)(F)F ; retrieve measured activity coefficient.
// result 4.05

// query Given the molecule CCC[N+](=O)[O-] [1-nitropropane] + CCCCCCCCCCCC[N+](C)(C)CCOc1ccccc1.O=S(=O)([N-]S(=O)(=O)C(F)(F)F)C(F)(F)F , what is its reported activity coefficient?
// result 0.722

// query Look up activity coefficient for this molecule: CCCc1ccccc1 [propylbenzene] + CCCCCCCCCCCC[N+](C)(C)CCOc1ccccc1.O=S(=O)([N-]S(=O)(=O)C(F)(F)F)C(F)(F)F
// result 1.09

// query activity coefficient for CCCO [propan-1-ol] + CCCCCCCCCCCC[N+](C)(C)CCOc1ccccc1.O=S(=O)([N-]S(=O)(=O)C(F)(F)F)C(F)(F)F ?
// result 1.28

// query I am curious: what activity coefficient value has been reported for CCOC(C)(C)C [2-ethoxy-2-methylpropane] + CCCCCCCCCCCC[N+](C)(C)CCOc1ccccc1.O=S(=O)([N-]S(=O)(=O)C(F)(F)F)C(F)(F)F ?
// result 1.8

// query Entry under review: CCCCCC [hexane] + CCCCCCCCCCCC[N+](C)(C)CCOc1ccccc1.O=S(=O)([N-]S(=O)(=O)C(F)(F)F)C(F)(F)F . Reported activity coefficient?
// result 2.91

// query Form field: reported activity coefficient of CCC(C)CC [3-methylpentane] + CCCCCCCCCCCC[N+](C)(C)CCOc1ccccc1.O=S(=O)([N-]S(=O)(=O)C(F)(F)F)C(F)(F)F
// result 2.74

// query Given the molecule CC#N [acetonitrile] + CCCCCCCCCCCC[N+](C)(C)CCOc1ccccc1.O=S(=O)([N-]S(=O)(=O)C(F)(F)F)C(F)(F)F , what is its reported activity coefficient?
// result 0.473
